- experimentalTarget: photolabile unchained HLA-A*11:01 pMHC-I protein (Homo sapiens, UniProt P04439, A114D/D185E/E176A/F33Y/L180Q/S129P/T187R)
- assayText: ELISA with photolabile unchained pMHC-I protein and UV irradiation
- Format: binding
- conditionSummary: […]; mean, STDEV
Class (required): determined from EASY_mean; valid ranges are range 1 (below -0.03), range 2 (-0.03 to below -0.008), range 3 (-0.008 or more)

>>> labelclass("TSPKANKEIL [EX1015]")
"range 3"
>>> labelclass("RAKLLGAE [LR1008]")
"range 2"
>>> labelclass("TSTVQLIMQ [TM1010]")
"range 2"
>>> labelclass("KITDFGRA [LR1002]")
"range 3"
>>> labelclass("VQLIMQLMPF [TM1023]")
"range 2"
>>> labelclass("TDFGRAKLLG [LR1023]")
"range 2"
>>> labelclass("LTSTVQLIMQLM [TM1041]")
"range 1"
>>> labelclass("TSTVQLIMQLM [TM1031]")
"range 1"
>>> labelclass("VAIKTSPKA [EX1005]")
"range 3"
>>> labelclass("IMQLMPFGC [TM1016]")
"range 2"
>>> labelclass("CLTSTVQLIM [TM1018]")
"range 3"
>>> labelclass("FGRAKLLGA [LR1015]")
"range 2"
>>> labelclass("AIKTSPKANKE [EX1019]")
"range 3"
>>> labelclass("ICLTSTVQLIM [TM1028]")
"range 1"
>>> labelclass("KITDFGRAKL [LR1021]")
"range 2"
>>> labelclass("VQLIMQLM [TM1004]")
"range 1"
>>> labelclass("STVQLIMQLM [TM1021]")
"range 2"
>>> labelclass("AIKTSPKAN [EX1006]")
"range 3"
>>> labelclass("TDFGRAKLL [LR1013]")
"range 3"
>>> labelclass("STVQLIMQLMPF [TM1043]")
"range 1"
>>> labelclass("VQLIMQLMP [TM1013]")
"range 1"
>>> labelclass("LIMQLMPF [TM1006]")
"range 1"
>>> labelclass("MQLMPFGCL [TM1017]")
"range 1"
>>> labelclass("KTSPKANKEIL [EX1021]")
"range 3"
>>> labelclass("LTSTVQLIM [TM1009]")
"range 1"
>>> labelclass("KTSPKANKEI [EX1014]")
"range 3"
>>> labelclass("PVAIKTSPKA [EX1010]")
"range 3"
>>> labelclass("ITDFGRAKLL [LR1022]")
"range 2"
>>> labelclass("IPVAIKTSPKA [EX1016]")
"range 3"
>>> labelclass("TSTVQLIM [TM1001]")
"range 2"

---

- experimentalTarget: photolabile unchained HLA-A*11:01 pMHC-I protein (Homo sapiens, UniProt P04439, A114D/D185E/E176A/F33Y/L180Q/S129P/T187R)
- assayText: ELISA with photolabile unchained pMHC-I protein and UV irradiation
- Type: binding
Item-by-item account of EASY_mean
testReadout: EASY_mean

>>> result("GSLLDYVREH [CS1026]")
-0.04117
>>> result("FGSLLDYVREH [CS1036]")
0.0933
>>> result("GSLLDYVREHKD [CS1049]")
-0.02126
>>> result("VAIKTSPKANKE [EX1026]")
-0.02113
>>> result("TSPKANKE [EX1004]")
-0.008845
>>> result("LMPFGSLLDYVR [CS1045]")
0.002285
>>> result("PVAIKTSPKANK [EX1025]")
-0.00741
>>> result("QLITQLMPFGSL [CS1040]")
-0.0163
>>> result("FGSLLDYV [CS1006]")
-0.03548
>>> result("KTSPKANK [EX1003, EGFR exon 19 deletion-derived peptide]")
0.02773
>>> result("LMPFGSLLDY [CS1022]")
0.006828
>>> result("PFGSLLDYVR [CS1024]")
0.06666
>>> result("QLIMQLMPFGCL [TM1047]")
-0.05287
>>> result("ITDFGRAKLLGA [LR1045]")
-0.00307
>>> result("SLLDYVRE [CS1008]")
-0.02238

---

- experimentalTarget: photolabile unchained HLA-A*11:01 pMHC-I protein (Homo sapiens, UniProt P04439, A114D/D185E/E176A/F33Y/L180Q/S129P/T187R)
- assayText: ELISA with photolabile unchained pMHC-I protein and UV irradiation
- Format: binding
Parameter EASY_mean: see the listing below.
testReadout: EASY_mean

>>> quantitativeresult("TQLMPFGSLLD [CS1031]")
-0.03382
>>> quantitativeresult("KITDFGRAKLLG [LR1044]")
0.1191
>>> quantitativeresult("PFGSLLDYVREH [CS1047]")
-0.01054
>>> quantitativeresult("PFGSLLDY [CS1005]")
-0.004417
>>> quantitativeresult("RAKLLGAEEKE [LR1038]")
-0.00823
>>> quantitativeresult("QLITQLMPFGS [CS1028]")
-0.02964
>>> quantitativeresult("GSLLDYVRE [CS1016]")
-0.02695
>>> quantitativeresult("TSPKANKEILDE [EX1030]")
-0.0262

---

- experimentalTarget: photo-labile unchained HLA-A*11:01 MHC-I protein (Homo sapiens, UniProt P04439, A114D/D185E/E176A/F33Y/L180Q/S129P/T187R)
- Construct: made in house
- assayText: Photo-labile unchained MHC-I protein treated with UV, peptides and enterokinase (SDS-PAGE band volume)
- Type: biochemical
- conditionSummary: mean Adj. Volume of the 2 replicates
Recorded vol by entry
testReadout: vol

>>> quantitativeresult("QLMPFGSLLDY [CS1032]")
11215354
>>> quantitativeresult("VAIKTSPKANK [EX1018, EGFR exon 19 deletion-derived peptide]")
8041509
>>> quantitativeresult("FGSLLDYVREHK [CS1048]")
12972708
>>> quantitativeresult("SLLDYVREHK [CS1027]")
11075589
>>> quantitativeresult("MQLMPFGCLLDY [TM1050]")
5027054
>>> quantitativeresult("SLLDYVREHKDN [CS1050]")
12012525
>>> quantitativeresult("SLLDYVREH [CS1017]")
10431446
>>> quantitativeresult("GSLLDYVREHK [CS1037]")
9517473

---

- experimentalTarget: photolabile unchained HLA-A*11:01 pMHC-I protein (Homo sapiens, UniProt P04439, A114D/D185E/E176A/F33Y/L180Q/S129P/T187R)
- assayText: ELISA with photolabile unchained pMHC-I protein and UV irradiation
- Assay type: binding
- conditionSummary: […]; mean, STDEV
Would you mind labelling by EASY_mean? At or over -0.03 is Fulfilled, under is Not fulfilled.

>>> labelclass("LTSTVQLIMQ [TM1019]")
"Fulfilled"
>>> labelclass("AIKTSPKANK [EX1012, EGFR exon 19 deletion-derived peptide]")
"Fulfilled"
>>> labelclass("KTSPKANKE [EX1008]")
"Fulfilled"
>>> labelclass("LTSTVQLIMQL [TM1030]")
"Not fulfilled"
>>> labelclass("GRAKLLGAEE [LR1026]")
"Fulfilled"
>>> labelclass("LIMQLMPFG [TM1015]")
"Not fulfilled"
>>> labelclass("TVQLIMQLMPF [TM1033]")
"Not fulfilled"
>>> labelclass("RAKLLGAEE [LR1017]")
"Fulfilled"
>>> labelclass("TSPKANKEI [EX1009]")
"Fulfilled"
>>> labelclass("IKTSPKANKE [EX1013]")
"Fulfilled"
>>> labelclass("VAIKTSPKANK [EX1018, EGFR exon 19 deletion-derived peptide]")
"Fulfilled"
>>> labelclass("IKTSPKANK [EX1007]")
"Fulfilled"
>>> labelclass("TDFGRAKL [LR1004]")
"Fulfilled"
>>> labelclass("TVQLIMQLM [TM1012]")
"Not fulfilled"
>>> labelclass("TVQLIMQL [TM1003]")
"Not fulfilled"

---

- experimentalTarget: photolabile unchained HLA-A*11:01 pMHC-I protein (Homo sapiens, UniProt P04439, A114D/D185E/E176A/F33Y/L180Q/S129P/T187R)
- assayText: ELISA with photolabile unchained pMHC-I protein and UV irradiation
- Type: binding
testReadout: EASY_mean

>>> quantitativeresult("GRAKLLGAEEK [LR1037]")
0.0001747
>>> quantitativeresult("LMPFGSLLDYV [CS1033]")
-0.01373
>>> quantitativeresult("FGRAKLLGAEEK [LR1048]")
-0.01082
>>> quantitativeresult("IKTSPKAN [EX1002]")
-0.005748
>>> quantitativeresult("LITQLMPFGSL [CS1029]")
-0.02804
>>> quantitativeresult("TQLMPFGS [CS1001]")
0.00928
>>> quantitativeresult("GSLLDYVREHK [CS1037]")
0.5397
>>> quantitativeresult("RAKLLGAEEKEY [LR1050]")
0.01434
>>> quantitativeresult("MPFGSLLD [CS1004]")
-0.003998
>>> quantitativeresult("LMPFGSLLD [CS1012, probably meant CS1032]")
-0.02081
>>> quantitativeresult("MPFGSLLDY [CS1013]")
-0.03532
>>> quantitativeresult("IKTSPKANKEIL [EX1028]")
-0.02595
>>> quantitativeresult("MPFGSLLDYV [CS1023]")
0.02198
>>> quantitativeresult("LMPFGSLL [CS1003]")
0.002317
>>> quantitativeresult("DFGRAKLLGAE [LR1035]")
-0.05461
>>> quantitativeresult("TDFGRAKLLGAE [LR1046]")
-0.01889
